measurementTarget: human ether-à-go-go-related gene (hERG) potassium channel (human);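 also: peak tail current of the secondary pulse compared with the same well before compound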
Sequence (Q12809 whole entry, looked up): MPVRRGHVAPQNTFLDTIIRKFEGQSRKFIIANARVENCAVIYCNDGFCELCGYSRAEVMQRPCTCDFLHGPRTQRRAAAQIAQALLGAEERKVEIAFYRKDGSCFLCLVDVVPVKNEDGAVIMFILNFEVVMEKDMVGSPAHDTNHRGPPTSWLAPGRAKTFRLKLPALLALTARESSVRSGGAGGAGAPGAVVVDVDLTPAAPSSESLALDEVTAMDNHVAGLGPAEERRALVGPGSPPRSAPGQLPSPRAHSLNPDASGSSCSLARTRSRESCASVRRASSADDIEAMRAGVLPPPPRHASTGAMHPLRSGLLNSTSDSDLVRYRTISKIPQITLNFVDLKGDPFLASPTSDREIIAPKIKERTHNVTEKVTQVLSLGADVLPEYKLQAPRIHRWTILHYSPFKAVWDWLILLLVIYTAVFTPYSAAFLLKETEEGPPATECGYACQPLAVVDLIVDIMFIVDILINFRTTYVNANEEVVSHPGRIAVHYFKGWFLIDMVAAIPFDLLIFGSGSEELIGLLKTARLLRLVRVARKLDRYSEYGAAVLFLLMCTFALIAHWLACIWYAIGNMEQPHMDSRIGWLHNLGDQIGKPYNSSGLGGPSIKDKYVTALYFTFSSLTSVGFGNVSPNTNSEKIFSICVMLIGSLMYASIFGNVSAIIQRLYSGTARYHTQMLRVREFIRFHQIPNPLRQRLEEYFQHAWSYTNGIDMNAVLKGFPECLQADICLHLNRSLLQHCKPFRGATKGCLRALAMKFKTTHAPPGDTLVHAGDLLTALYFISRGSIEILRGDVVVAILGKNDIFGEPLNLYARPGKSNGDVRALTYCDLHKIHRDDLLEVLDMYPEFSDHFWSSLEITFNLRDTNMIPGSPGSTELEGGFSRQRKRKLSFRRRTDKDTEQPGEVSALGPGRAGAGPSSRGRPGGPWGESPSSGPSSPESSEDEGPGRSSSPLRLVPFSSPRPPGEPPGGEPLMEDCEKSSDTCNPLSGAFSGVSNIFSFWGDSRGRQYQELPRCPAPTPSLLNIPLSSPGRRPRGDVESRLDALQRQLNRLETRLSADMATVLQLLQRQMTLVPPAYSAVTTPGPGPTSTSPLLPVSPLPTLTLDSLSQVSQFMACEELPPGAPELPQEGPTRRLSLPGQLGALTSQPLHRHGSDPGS
runDescription: primary screen, population patch clamp on CHO cells stably expressing hERG; higher = less effect of the substance
About 14,000 (4.5%) of roughly 310,000 compounds showed an effect of 50% or more. Effects have a minus sign here. The sample holds strong results, similar compounds and a random draw of the others, so the mix is not that of the screen.
hERG current change (%, negative = inhibition) at 10uM values by entry
propertyMeasured: hERG current change (%, negative = inhibition) at 10uM (%)

[[record]]
compound = "Cc1ccc(C(=O)N/C(=C\\c2cccs2)C(=O)NCCCn2ccnc2)cc1"
valuemeasured = -70.3

[[record]]
compound = "O=c1c(Cc2c(F)cccc2Cl)c(O)ccn1Cc1ccc(F)cc1"
valuemeasured = -0.211

[[record]]
compound = "NC(=O)c1ccc(Oc2ncc(C(F)(F)F)cc2Cl)cc1"
valuemeasured = -3.77

[[record]]
compound = "CCCn1c(SCC(=O)c2cc(OC)ccc2OC)nnc1-c1ccco1"
valuemeasured = -12.5

[[record]]
compound = "Cc1ccccc1OCC(=O)OCn1nnc2ccccc2c1=O"
valuemeasured = 19.6

[[record]]
compound = "Cc1ccc2c(Cl)c(C(=O)NCC3CCCO3)sc2c1 (stereo not shown)"
valuemeasured = -12.8

[[record]]
compound = "COC(=O)[C@@H](NC(=O)NCc1ccco1)C(C)C"
valuemeasured = 2.75

[[record]]
compound = "COc1ccc(C(=O)N/C(=C/c2cccs2)C(=O)NCCCn2ccnc2)cc1OC"
valuemeasured = -7.14

[[record]]
compound = "COc1ccccc1N(C)S(=O)(=O)c1ccc(C(=O)NCC2CCCCC2)cc1"
valuemeasured = -3.05

[[record]]
compound = "Cc1ccc(CSCCNC(=O)CN(c2cc(C)ccc2C)S(C)(=O)=O)cc1"
valuemeasured = -23.5


Data origin: paper PMC4336329
